The values you see were collected from PubChem BioAssay (NCI).

Tested on: 786-0 renal
In this exercise, the only acceptable responses are active, inactive

O=C1C=CC(=O)C(c2cc(-c3ccc(Cl)cc3)nn2-c2ccccc2)=C1 ... inactive
Cc1cc2nc3c4cc(C=O)ccc4n(CCN(C)C)c3nc2cc1C ... inactive
CC(C)OC(=O)Nc1ccc(-c2nc(-c3cccc(OCCN4CCOCC4)c3)c(-c3ccnc(Br)c3)[nH]2)cc1 ... inactive
Cc1ccc2c(c1)c(C1=C(c3cn(C)c4ccccc34)C(=O)NC1=O)cn2C ... inactive
C=C(CN1CCc2ccccc2C1)c1ccc(CCC(=O)Nc2ccccc2N)cc1 ... inactive
Nc1nonc1-c1nc2cnccc2n1C1CCCCC1 ... inactive

Here's the next entry for you.
[ask] Call for entry C=CC(=O)N1CC2(CCC(n3nc(-c4ccc(Oc5ccccc5)cc4)c4c(N)ncnc43)CC2)C1 :
[reply] active

====

Data export: GI50 values recorded with SW-620 colon.

[ask] Record request: GI50 value, item Cc1ccc(-c2c3c(nn2-c2ccc(S(=O)(=O)NC(=O)Nc4ccccc4)cc2)-c2ccccc2C3)cc1
[reply] 12 µM

[ask] Record request: GI50 value, item CCSc1nc2[nH]c(=S)[nH]c(=S)c2c(-c2ccc(OC)c(OC)c2)c1C#N
[reply] 26.5 µM

[ask] Record request: GI50 value, item C[C@]12CC[C@@H]3c4ccc(O)cc4CC[C@H]3[C@@H]1CC[C@@H]2NS(=O)(=O)c1cccc(OC(F)(F)F)c1
[reply] 3.34 µM

[ask] Record request: GI50 value, item Cn1cc(C2=C(c3cn(C)c4ccc(OCc5ccccc5)cc34)C(=O)NC2=O)c2ccccc21
[reply] > 25 µM

====

Test system: UO-31 renal
test details: NCI tumour cell line growth inhibition, 48 h
measured quantity: TGI (µM)
Numeric answer only, unit µM assumed.

Clc1nc(Cl)c2ncn(CC#CCn3cnc4c(Cl)nc(Cl)nc43)c2n1 ... 3.31
COc1cc(/C=C2\N=C(c3ccccc3)N(c3cc4cc(Sc5ccccc5)ccc4[nH]3)C2=O)cc(OC)c1OC ... 48.9
CCSc1nc2[nH]c(=S)[nH]c(=S)c2c(-c2ccc(OC)c(OC)c2)c1C#N ... 36
C=C(C(=O)OC1C(CO)OC(OCC2CC[C@@H]3C[C@]4(OC(=O)C3=C)C(C)=CC(=O)C24)C(O)C1O)[C@@H]1CCC(CO)C2C(=O)C=C(C)[C@@]2(O)C1 (some centres not stated) ... 7.98
C#Cc1nc(N)c2ncn(C3OC(COS(N)(=O)=O)C(O)C3O)c2n1 (configuration not stated) ... 0.15
Cc1ccc(N=Nc2c(-c3ccccc3)nn(C(=O)CC(=O)Nc3ccc(Cl)cc3)c2-c2ccccc2)cc1 ... 86.3

[ask] Record request: TGI value, item CCCCCCC[CH2][Sn]([Cl])([Cl])[CH2]CCCCCCC
[reply] 22.4

[ask] Record request: TGI value, item O=C(C=P(c1ccccc1)(c1ccccc1)c1ccccc1)CC(=S)CC(=O)C=P(c1ccccc1)(c1ccccc1)c1ccccc1
[reply] 98.9

[ask] Record request: TGI value, item O=C(/C=C/c1cccc2ccccc12)c1ccccc1
[reply] 16.3

[ask] Record request: TGI value, item CCCc1n(Cc2ccc3ccccc3c2)c2ccccc2[n+]1Cc1ccc2ccccc2c1
[reply] 3

====

Test system: KM20L2 colon
test details: NCI tumour cell line growth inhibition, 48 h
measured quantity: TGI

Observe how each entry below is paired with its result.
O=C1OC(c2cccc(C(F)(F)F)c2)(c2cccc(C(F)(F)F)c2)c2ccc3ccccc3c21 ... > 100 µM
CCCCCCC[CH2][Sn]([Cl])([Cl])[CH2]CCCCCCC ... 23.2 µM

[ask] Given the entry COc1ccc(-c2nnc(-c3nsc4ccccc34)o2)cc1 , what TGI was observed with KM20L2 colon?
[reply] > 100 µM

[ask] Given the entry O=C1Cc2ccccc2N1/N=C\c1ccc([N+](=O)[O-])cc1 , what TGI was observed with KM20L2 colon?
[reply] > 100 µM

[ask] Given the entry COc1cc(-c2ccc(N=Nc3c(S(=O)(=O)O)cc4cc(S(=O)(=O)O)cc(N)c4c3O)c(OC)c2)ccc1N=Nc1c(S(=O)(=O)O)cc2cc(S(=O)(=O)O)cc(N)c2c1O , what TGI was observed with KM20L2 colon?
[reply] > 100 µM

====

Tested on: RXF-631 renal
test details: NCI tumour cell line growth inhibition, 48 h
measured quantity: TGI

C[Si](C)(C)/N=C1\N2C(=NC1(C(F)(F)F)C(F)(F)F)Sc1ccccc12 ... > 50 µM
COC(=O)c1cc2cc(OC)c(OC)cc2cc(C(=O)OC)c1=O ... > 100 µM
CCc1ccccc1N1C(=O)C(=O)C(c2nc3ccccc3s2)C(=O)C1=O ... > 100 µM
CNS(=O)(=O)NN(C)S(=O)(=O)c1ccc(OC)cc1 ... > 100 µM

Next compound, TGI to be filled in.
[ask] Record request: TGI value, item COC(=O)CCC(NC(=S)N/N=C(\C)c1ccco1)C(=O)OC (stereo not given)
[reply] > 100 µM

====

Tested on: NCI-H226 lung
Where a SMILES comes first, the peptide text is derived from it. [ ]: non-standard residue; d: D form. The star is where a group is joined. Nle = CCCC[C@H](N)C(=O)O; Cbz = O=C(OCc1ccccc1)*
In this exercise, the only acceptable responses are TRUE (active), FALSE (inactive)

Past entries and their recorded results:
C=CC(=O)N1CC2(CCC(n3nc(-c4ccc(Oc5ccccc5)cc4)c4c(N)ncnc43)CC2)C1 ... FALSE
CCCC[C@@H](C=O)NC(=O)[C@H](CC(C)C)NC(=O)[C@H](CC(C)C)NC(=O)OCc1ccccc1 (Cbz-Leu-Leu-[Nle]-aldehyde) ... TRUE

Here's the next entry for you.
[ask] Call for entry Nc1nonc1-c1nc2cnccc2n1C1CCCCC1 :
[reply] FALSE

====

Listed below: TGI values for each entry.
Test system: NCI-H460 lung
test details: NCI tumour cell line growth inhibition, 48 h

Observe how each entry below is paired with its result.
O=C(NNc1cn[nH]c(=O)n1)c1cccc2nc3ccccc3nc12 ... > 100 µM
COc1cc(C(=O)/C=C/c2c(C)n([O-])c3ccc(C(F)(F)F)cc3[n+]2=O)cc(OC)c1OC ... 29.1 µM
CCOC(=O)Nc1nc2cc(OC)c(OC)c(OC)c2s1 ... > 100 µM
O=C(/C=C/c1cccc(O)c1)c1cccc(-n2cc(-c3ccc(Cl)cc3)[nH]c2=O)c1 ... 5.99 µM
COC(=O)/C(=C(\C)NC(C)=O)c1c(C(=O)OC)[nH]c2ccccc12 ... > 100 µM

[ask] Record request: TGI value, item O=C(CSc1nnc(Cc2ccccc2)o1)Nc1ccc(Cl)cc1Cl
[reply] > 100 µM

[ask] Record request: TGI value, item O=C(CCc1ccc(O)cc1)NCCc1cccc(O)c1
[reply] > 50 µM

[ask] Record request: TGI value, item CCN(CC)S(=O)(=O)c1ccc2nc(NC(=O)OC)[nH]c2c1
[reply] > 100 µM

[ask] Record request: TGI value, item CC(C)OC(=O)Nc1ccc(-c2nc(-c3cccc(OCCN4CCOCC4)c3)c(-c3ccnc(Br)c3)[nH]2)cc1
[reply] > 100 µM

[ask] Record request: TGI value, item Clc1ccc(Cl)c(NNc2cc(Cl)ccc2Cl)c1
[reply] > 10 µM

[ask] Record request: TGI value, item CNC(=O)CNC(=O)CCC(=O)OC
[reply] > 100 µM

====

Test system: SN12C renal
In this exercise, the only acceptable responses are True = active, False = inactive

Past entries and their recorded results:
CCSc1nc2[nH]c(=S)[nH]c(=S)c2c(-c2ccc(OC)c(OC)c2)c1C#N ... False
Clc1ccc(-c2ccc(CNCC3CCNCC3)o2)c(-c2ccccc2)c1 ... False
CC(=O)O[C@H]1C(=O)[C@@]2(C)[C@H]([C@H](OC(=O)c3ccccc3)[C@]3(O)C[C@H](OC(=O)[C@H](OC(=O)OC[C@@H]4COC(C)(C)O4)[C@@H](NC(=O)c4ccccc4)c4ccccc4)C(C)=C1C3(C)C)[C@]1(OC(C)=O)CO[C@@H]1C[C@@H]2O ... True
CC(=O)N1CCN([C@H]2CCC[C@@H](NC(=O)c3cc4c(F)ccc(C)c4[nH]3)C2)CC1 ... False
CCC[CH2][Sn]1([CH2]CCC)[O]CC(c2ccccn2)C[O]1 ... False
CC#CC#Cc1cccc(=O)o1 ... False
Cc1nc2ccccn2c1NC(=O)NNC(=S)Nc1ccc(Cl)cc1 ... False

Here's the next entry for you.
[ask] Call for entry CCCOC(=O)c1ccc2c(c1)[N+](=O)C(C(=O)c1ccccc1)=C(C(F)(F)F)[N+]2=O :
[reply] False

====

Tested on: PC-3 prostate
test details: NCI tumour cell line growth inhibition, 48 h
measured quantity: TGI (µM)
Numeric answer only, unit µM assumed.

Observe how each entry below is paired with its result.
O=C(CSCC(=O)N/N=C\c1cc(Cl)cc(Cl)c1O)N/N=C\c1cc(Cl)cc(Cl)c1O ... 18.5
O=C1Nc2ccc(Br)cc2C1=Nc1ccc2c(c1)OCO2 ... 33.6
COC(=O)C1SC(N(C)c2ccccc2)=NC12c1ccccc1Nc1ccccc12 (stereo not given) ... 53.9

[ask] Record request: TGI value, item CC(=O)NCCC1CN(C(=O)/C=C\I)c2ccccc21 (stereo not given)
[reply] 24

[ask] Record request: TGI value, item CC/C(=C(\c1ccc(Cl)cc1)c1ccc(OCCN2CCCCC2)cc1)c1ccc(O)cc1
[reply] 3.36

[ask] Record request: TGI value, item C/C(Cc1ccc(Cl)cc1)=C(\c1ccc(OCCN2CCCCCC2)cc1)c1ccc(OC(=O)c2ccccc2)cc1
[reply] 7.29
